- Test system: MALME-3M
- Assay procedure: cells
- Type: cell-based
- Setup conditions: MALME-3M (Melanoma), 10 μM, 48 hours
Readout type: growth percentage (%)
Give the quantity in %, number only.

Could you share what growth percentage was measured for "O=C1c2cc(Cl)ccc2-c2c(O)nc3ccccc3c21" , tested on MALME-3M?
103.37

For the record "CN(C)c1nc2ccccc2c2c1-c1ccc(Cl)cc1C2=O" , what value of growth percentage is listed for MALME-3M?
111.50

growth percentage of "O=C1c2cc(Cl)ccc2-c2c(N3CCN(c4ccccc4)CC3)nc3ccccc3c21" on MALME-3M?
100.05

Item "CCN(CC)CCNc1nc2ccccc2c2c1-c1ccc(Cl)cc1C2=O" with MALME-3M - growth percentage?
52.55

Find the measured growth percentage: item "O=C1c2cc(Cl)ccc2-c2c(N3CCSCC3)nc3ccccc3c21" , target or system MALME-3M.
101.05

Enter reported growth percentage observed with MALME-3M for "COc1cccc(N2CCN(c3nc4ccccc4c4c3-c3ccc(Cl)cc3C4=O)CC2)c1"
92.79

###

- Test system: HOP-92
- Assay procedure: cells
- Assay type: cell-based
- Setup conditions: HOP-92 (Non-Small Cell Lung Cancer), 10 μM, 48 hours
growth percentage less than 40% is 1; growth percentage greater than or equal to 40% is -1.

Is 40% strictly greater than the compound's reported growth percentage? compound: CN1CCN(c2nc3ccccc3c3c2-c2ccc(Cl)cc2C3=O)CC1 [SJ-12]
1

Confirm or reject: growth percentage of O=C1c2cc(Cl)ccc2-c2c(N3CCOCC3)nc3ccccc3c21 [SJ-8] lies strictly below 40%
-1

Take the compound CN(C)c1nc2ccccc2c2c1-c1ccc(Cl)cc1C2=O [SJ-2] and say whether its growth percentage is less than 40%.
-1

Input COc1nc2ccccc2c2c1-c1ccc(Cl)cc1C2=O [SJ-27] ; condition: growth percentage strictly below 40%. Does it hold?
-1

I wonder whether O=C1c2cc(Cl)ccc2-c2c(Cl)nc3ccccc3c21 [TC-XCl-1] has growth percentage below 40%. Can you tell?
-1

###

- System: UO-31
- Assay procedure: cells
- Assay type: cell-based
- Setup conditions: UO-31 (Renal Cancer), 10 μM, 48 hours
Readout type: growth percentage
Put your answer as a value accompanied by its unit after it.

// lookup growth percentage for "O=C1c2cc(Cl)ccc2-c2c(N3CCSCC3)nc3ccccc3c21"
65.33%

Requested read-out: growth percentage. Entry: "O=C1c2cc(Cl)ccc2-c2c(SCCO)nc3ccccc3c21"
56.23%

Please report the recorded growth percentage for "COc1cccc(N2CCN(c3nc4ccccc4c4c3-c3ccc(Cl)cc3C4=O)CC2)c1" .
86.64%

What value of growth percentage has been reported for the following compound? "O=C1c2cc(Cl)ccc2-c2c(N3CCN(C4CCCC4)CC3)nc3ccccc3c21"
72.57%

Please look up its growth percentage: "CNc1nc2ccccc2c2c1-c1ccc(Cl)cc1C2=O"
56.91%

###

- Test system: SK-MEL-5
- Assay procedure: cells
- Type: cell-based
- Setup conditions: SK-MEL-5 (Melanoma), 10 μM, 48 hours
Readout type: growth percentage (%)
State just the number; it will be interpreted in %.

Which growth percentage reading was recorded for the compound "O=C1c2cc(Cl)ccc2-c2c(Cl)nc3ccccc3c21" ?
86.30

I would be grateful if you could share the reported growth percentage for "O=C1c2cc(Cl)ccc2-c2c(N3CCN(C(=O)N4CCCCC4)CC3)nc3ccccc3c21" .
92.50

Give its growth percentage value. Item: "O=C1c2cc(Cl)ccc2-c2c(N3CCN(C4CCCC4)CC3)nc3ccccc3c21"
97.48

Any idea what its growth percentage is? The compound is "O=C1c2cc(Cl)ccc2-c2c(N3CCN(c4ccccc4)CC3)nc3ccccc3c21"
99.23

Bench note: what growth percentage did "O=C1c2cc(Cl)ccc2-c2c(N3CCNCC3)nc3ccccc3c21" show?
59.18

What value of measured growth percentage is listed for "COc1cccc(N2CCN(c3nc4ccccc4c4c3-c3ccc(Cl)cc3C4=O)CC2)c1" ?
96.87

State the recorded growth percentage for this entry: "COc1nc2ccccc2c2c1-c1ccc(Cl)cc1C2=O"
98.51

Form field: reported growth percentage of "CCN(CC)CCNc1nc2ccccc2c2c1-c1ccc(Cl)cc1C2=O"
82.51

Recorded values, source patent US20150197492A1.
